# Tested on: GST-Bcl-2
# Run description: TR-FRET binding assay, Bcl-2
# Cond: TR-FRET Ki values
Listing of entries alongside the reported Binding selectivity ratio (Bcl-XL Ki/Bcl-2 Ki).
Property: Binding selectivity ratio (Bcl-XL Ki/Bcl-2 Ki)

• CC1(C)CCC(CN2CCN(c3ccc(C(=O)NS(=O)(=O)c4cnc(OCC5CCC(F)(F)CC5)c(Cl)c4)c(Oc4cccc5[nH]cnc45)c3)CC2)=C(c2ccc(Cl)cc2)C1 [EXAMPLE 463] = 6043
• CNc1ccc(S(=O)(=O)NC(=O)c2ccc(N3CCN(CC4=C(c5ccc(Cl)cc5)CC(C)(C)CC4)CC3)cc2Oc2ccc3[nH]ccc3c2)cc1S(=O)(=O)C(F)(F)F [EXAMPLE 328] = >355.0
• CC(C)(C)c1ccc(CN2CCN(c3ccc(C(=O)NS(=O)(=O)c4ccc(OCC5CCOCC5)c([N+](=O)[O-])c4)c(Oc4ccc5[nH]ccc5c4)c3)CC2)c(-c2ccc(Cl)cc2)c1 [EXAMPLE 342] = >25.6
• CC1(C)CCC(CN2CCN(c3ccc(C(=O)NS(=O)(=O)c4ccc(NC[C@H]5CC[C@@H](O)CC5)c([N+](=O)[O-])c4)c(Oc4ccc5[nH]ccc5c4)c3)CC2)=C(c2ccc(Cl)cc2)C1 [EXAMPLE 312] = >1941.2
• O=C(NS(=O)(=O)c1ccc(NCC2CCOCC2)c([N+](=O)[O-])c1)c1ccc(N2CCN(Cc3cc(N4CCOCC4)ccc3-c3ccc(Cl)cc3)CC2)cc1Oc1cccc2[nH]ccc12 [EXAMPLE 198] = >166.4
• O=C(NS(=O)(=O)c1ccc(NCC2CCOCC2)c([N+](=O)[O-])c1)c1ccc(N2CCN(Cc3ccc(C(F)(F)F)cc3-c3ccc(Cl)cc3)CC2)cc1Oc1ccc2[nH]ccc2c1 [EXAMPLE 339] = >46.7
• CC1(C)CCC(CN2CCN(c3ccc(C(=O)NS(=O)(=O)c4ccc(NCC5CCOCC5)c([N+](=O)[O-])c4)c(Oc4cccc5c4CCNC5)c3)CC2)=C(c2ccc(Cl)cc2)C1 [EXAMPLE 399] = >225764.520763495
• CC1(C)CCC(CN2CCN(c3ccc(C(=O)NS(=O)(=O)c4ccc(N[C@H]5CC[C@H](N6CCOCC6)CC5)c([N+](=O)[O-])c4)c(Oc4ccc5[nH]ccc5c4)c3)CC2)=C(c2ccc(Cl)cc2)C1 [Example 178] = >2915.8
• CC1(C)CCC(CN2CCN(c3ccc(C(=O)NS(=O)(=O)c4ccc(NCC5CCOCC5)c(C#N)c4)c(Oc4ccc5[nH]ccc5c4)c3)CC2)=C(c2ccc(Cl)cc2)C1 [EXAMPLE 367] = >143.2
• CN(C)CCOc1ccc(-c2ccc(Cl)cc2)c(CN2CCN(c3ccc(C(=O)NS(=O)(=O)c4ccc(NN5CCN(C)CC5)c([N+](=O)[O-])c4)c(Oc4cccc5[nH]ccc45)c3)CC2)c1 [EXAMPLE 274] = 244.6

---

# Test system: FL5.12/Bcl-2 cells
# Run description: FL5.12/Bcl-2 cell viability assay
# Format: cell-based, murine
# Cond: ratio of canine platelet EC50 to FL5.12/Bcl-2 EC50
Property: Selectivity Ratio (Platelet EC50/FL5.12/Bcl-2 EC50)

• CN1CCC(Nc2ccc(S(=O)(=O)NC(=O)c3ccc(N4CCN(CC5=C(c6ccc(Cl)cc6)CC(C)(C)OC5)CC4)cc3Oc3cccc4[nH]ccc34)cc2[N+](=O)[O-])CC1 [Example 145] = 730
• CN1CCN(CCCNc2ccc(S(=O)(=O)NC(=O)c3ccc(N4CCN(CC5=C(c6ccc(Cl)cc6)CC(C)(C)CC5)CC4)cc3Oc3ccc4[nH]ccc4c3)cc2[N+](=O)[O-])CC1 [Example 96] = 2043
• CN(C)CCOc1ccc(-c2ccc(Cl)cc2)c(CN2CCN(c3ccc(C(=O)NS(=O)(=O)c4ccc(NC5CCN(C)CC5)c([N+](=O)[O-])c4)c(Oc4ccccc4)c3)CC2)c1 [Example 133] = 5

From: patent US9125913B2
